- test.target: KDM5A (Homo sapiens, UniProt P29375)
- Construct: Full length recombinant Flag tagged KDM5A protein was purified from Sf9 insect cells; Flag; made in house; host or cells: Sf9 insect cells
- Sequence (P29375 whole entry): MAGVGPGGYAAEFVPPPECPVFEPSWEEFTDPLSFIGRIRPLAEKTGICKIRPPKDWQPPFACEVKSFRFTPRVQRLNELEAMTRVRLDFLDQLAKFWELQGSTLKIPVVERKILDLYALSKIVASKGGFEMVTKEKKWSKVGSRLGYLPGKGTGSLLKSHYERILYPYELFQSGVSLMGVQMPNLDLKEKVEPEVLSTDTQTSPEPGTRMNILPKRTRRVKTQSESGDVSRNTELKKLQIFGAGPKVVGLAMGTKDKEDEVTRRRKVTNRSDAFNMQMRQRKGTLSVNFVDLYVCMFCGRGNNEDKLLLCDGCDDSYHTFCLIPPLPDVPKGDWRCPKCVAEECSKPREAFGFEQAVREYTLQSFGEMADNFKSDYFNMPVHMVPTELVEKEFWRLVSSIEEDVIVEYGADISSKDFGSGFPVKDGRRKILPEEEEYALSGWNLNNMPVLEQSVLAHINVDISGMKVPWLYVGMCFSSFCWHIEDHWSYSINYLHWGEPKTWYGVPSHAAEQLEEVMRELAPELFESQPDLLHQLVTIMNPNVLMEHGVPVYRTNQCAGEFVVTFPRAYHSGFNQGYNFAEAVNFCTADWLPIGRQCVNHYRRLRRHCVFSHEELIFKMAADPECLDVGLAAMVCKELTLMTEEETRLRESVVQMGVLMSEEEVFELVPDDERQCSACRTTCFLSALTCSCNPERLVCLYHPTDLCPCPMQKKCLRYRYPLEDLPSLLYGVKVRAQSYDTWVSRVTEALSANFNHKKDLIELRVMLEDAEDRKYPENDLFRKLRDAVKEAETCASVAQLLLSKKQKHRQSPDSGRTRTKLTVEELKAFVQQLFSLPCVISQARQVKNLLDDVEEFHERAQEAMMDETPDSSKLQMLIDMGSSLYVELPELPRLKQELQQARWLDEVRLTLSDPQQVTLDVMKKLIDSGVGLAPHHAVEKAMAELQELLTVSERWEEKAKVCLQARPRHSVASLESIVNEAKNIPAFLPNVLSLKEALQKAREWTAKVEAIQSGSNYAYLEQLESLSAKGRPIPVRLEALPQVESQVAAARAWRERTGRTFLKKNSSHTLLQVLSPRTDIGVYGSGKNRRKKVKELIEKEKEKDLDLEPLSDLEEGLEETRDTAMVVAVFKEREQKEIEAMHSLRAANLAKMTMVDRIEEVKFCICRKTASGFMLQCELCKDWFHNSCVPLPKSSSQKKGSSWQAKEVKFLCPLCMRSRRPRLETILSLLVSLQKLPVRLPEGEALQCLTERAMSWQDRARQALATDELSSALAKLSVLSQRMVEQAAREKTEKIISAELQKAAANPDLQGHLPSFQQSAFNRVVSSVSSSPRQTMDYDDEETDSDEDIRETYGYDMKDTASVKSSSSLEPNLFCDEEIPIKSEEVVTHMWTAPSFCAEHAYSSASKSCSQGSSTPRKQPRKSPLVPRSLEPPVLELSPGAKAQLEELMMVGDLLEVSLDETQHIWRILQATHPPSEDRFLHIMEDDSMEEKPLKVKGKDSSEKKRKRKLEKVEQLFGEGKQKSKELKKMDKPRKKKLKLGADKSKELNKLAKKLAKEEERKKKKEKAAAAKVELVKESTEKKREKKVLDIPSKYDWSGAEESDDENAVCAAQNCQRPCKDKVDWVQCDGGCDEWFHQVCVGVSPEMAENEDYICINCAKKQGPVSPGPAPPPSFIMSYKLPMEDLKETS
- assay.overview: KDM5A Demethylase Assay (TR-FRET Assay-B)
- Format: biochemical
- assay.conditions: full length recombinant Flag tagged KDM5A, 2 nM, TrisCl pH 7.4, 3.0 μM α-ketoglutarate, read-out: B KDM5A HTRF (IC50)
pIC50: −log10 of the molar value.
experimental.readout: pIC50

Example cases with answers are listed next.
structure.smiles.string: Cc1[nH]c2c(-c3cnn(-c4ccccn4)c3)cnn2c(=O)c1C#N
pIC50: 6.08
--
structure.smiles.string: Cc1ccnc(-n2cc(-c3cnn4c(=O)c(C(C)C)c(C)[nH]c34)cn2)n1
pIC50: 7.27
--
structure.smiles.string: CCc1c(C)[nH]c2c(-c3cnn(-c4cc(CO)ccn4)c3)cnn2c1=O
pIC50: 8.64

P: CCc1c(C)[nH]c2c(-c3cnn(-c4ccncn4)c3)cnn2c1=O
Q: CCc1c(C)[nH]c2c(-c3cnn(C(=O)OC)c3)cnn2c1=O
Ask: Select one: P or Q . Criterion: greater recorded pIC50. Answer by stating the label of the chosen item.
Reply: P
(P: 6.80, Q: 6.00)
